B1: library; a variant is named by its letters at N, in order (parent)
chain: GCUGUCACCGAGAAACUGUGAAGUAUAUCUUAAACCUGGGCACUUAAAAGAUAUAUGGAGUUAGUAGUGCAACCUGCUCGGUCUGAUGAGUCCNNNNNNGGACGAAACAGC

Variants of: B1
Assay: normalized RNA/DNA level without ligand (relative to sTRSVctl = 100) (log10 (% of sTRSVctl)); HEK293T; ligand: cyclic di-GMP (c-di-GMP-II aptamer); higher = less ribozyme self-cleavage, higher mRNA level
Settings: reporter: mCherry (pCS4076), ligand present: no
# reported normalized RNA/DNA level without ligand (log10); entries follow

A selection of reference data follows.
mutation_notation=UGCGUC experimental_value=1.75
mutation_notation=GUGCCC experimental_value=1.78
mutation_notation=GUUUUU experimental_value=1.72
mutation_notation=GUAGAU experimental_value=1.55
mutation_notation=UGUCAA experimental_value=1.69
mutation_notation=CGAUCG experimental_value=1.8
mutation_notation=CCCGCG experimental_value=1.79
mutation_notation=AACUGG experimental_value=1.59
mutation_notation=AUCUUG experimental_value=1.66
mutation_notation=CUGAGA experimental_value=1.46

Give the measured normalized RNA/DNA level without ligand (log10) of "CGCCCC" . 1.82
